Value source: the supplement of paper PMC10883282

test system: SYO-1; assay: relative viability vs DMSO control (72 h) (fraction); higher = more viable cells; conditions: 0.00017 µM
Measure Name: relative viability

Request: For the compound shown here, CC(C)NC[C@@H](C(=O)N1CCN(c2ncnc3c2[C@H](C)C[C@H]3O)CC1)c1ccc(Cl)cc1 [Ipatasertib] , give the reported relative viability.
Result: 0.95

Request: Now try COC(=O)N[C@@H](C)CNc1nccc(-c2cn(C(C)C)nc2-c2cc(Cl)cc(NS(C)(=O)=O)c2F)n1 [Encorafenib] .
Result: 0.988

Request: Now try CCN1C(=O)N(c2c(F)c(OC)cc(OC)c2F)Cc2cnc3[nH]c(CN4CCOCC4)cc3c21 [Pemigatinib] .
Result: 0.97

Others:
Request: For the compound shown here, CC[C@@H]1CN(C(=O)NCC(F)(F)F)C[C@@H]1c1cnc2cnc3[nH]ccc3n12 [Upadacitinib] , give the reported relative viability.
Result: 1.04

Request: Now try `CNC(=O)c1nnc(NC(=O)C2CC2)cc1Nc1cccc(-c2ncn(C)n2)c1OC` .
Result: 0.958

Request: Now try O=C(Nc1ccc(OC(F)(F)Cl)cc1)c1cnc(N2CC[C@@H](O)C2)c(-c2cc[nH]n2)c1 [Asciminib] .
Result: 0.92

Request: Now try C[C@]12O[C@H](C[C@]1(O)CO)n1c3ccccc3c3c4c(c5c6ccccc6n2c5c31)CNC4=O [Lestaurtinib] .
Result: 1.02

----------
test system: HT1080; experiment: relative viability vs DMSO control (72 h) (fraction); higher = more viable cells; conditions: 0.01372 µM
Measure Name: relative viability
Answer using only a numeral; do not append any unit.

Request: For the compound shown here, `CC(C)(O)CNc1nc(Nc2ccnc(C(F)(F)F)c2)nc(-c2cccc(C(F)(F)F)n2)n1` , give the reported relative viability.
Result: 1.04

Request: Now try `Cn1ncnc1[C@H]1c2n[nH]c(=O)c3cc(F)cc(c23)N[C@@H]1c1ccc(F)cc1` .
Result: 1

Request: Now try `COc1cc(Nc2ncc(F)c(Nc3ccc4c(n3)N(COP(=O)(O)O)C(=O)C(C)(C)O4)n2)cc(OC)c1OC` .
Result: 1.06

Okay, now this compound:
Request: For the compound shown here, `Cc1ccc(Nc2nccc(N(C)c3ccc4c(C)n(C)nc4c3)n2)cc1S(N)(=O)=O` , give the reported relative viability.
Result: 1.05

----------
tested on: SYO-1; test: relative viability vs DMSO control (72 h) (fraction); higher = more viable cells; conditions: 0.04115 µM
Rule: measured relative viability below 0.9 gets yes (1); anything equal to or greater than 0.9 gets no (0).

Solved cases (6 shown):
Request: For CC1(COc2ccc3c(c2)ncn3-c2ccc3cccc(N4CCC(N)CC4)c3n2)COC1 [Crenolanib] , is the recorded relative viability below the cut-off of 0.9?
Result: yes (1)

Request: Now try N#CCNC(=O)c1ccc(-c2ccnc(Nc3ccc(N4CCOCC4)cc3)n2)cc1 [Momelotinib] .
Result: no (0)

Request: Now try CC#CC(=O)N1CCC[C@H]1c1nc(-c2ccc(C(=O)Nc3ccccn3)cc2)c2c(N)nccn12 [Acalabrutinib] .
Result: no (0)

Request: Now try COc1cc(CCc2cc(NC(=O)c3ccc(N4CC(C)NC(C)C4)cc3)n[nH]2)cc(OC)c1 (centres undefined) [AZD-4547] .
Result: yes (1)

Request: Now try CC(C)NC[C@@H](C(=O)N1CCN(c2ncnc3c2[C@H](C)C[C@H]3O)CC1)c1ccc(Cl)cc1 [Ipatasertib] .
Result: yes (1)

Request: Now try Cc1cc2cc(Oc3ccnc(Nc4cccc(CS(=O)(=O)NCCN(C)C)c4)n3)ccc2[nH]1 [Sulfatinib] .
Result: yes (1)

Others:
Request: For CN1CC[C@@H](NC(=O)Nc2ccc(C#N)cc2)C[C@@H]1c1nc2ccccc2[nH]1 [Glasdegib] , is the recorded relative viability below the cut-off of 0.9?
Result: no (0)

Request: Now try CCN1C(=O)N(c2c(F)c(OC)cc(OC)c2F)Cc2cnc3[nH]c(CN4CCOCC4)cc3c21 [Pemigatinib] .
Result: yes (1)

Request: Now try CCN(CC)CCNC(=O)c1c(C)[nH]c(/C=C2\C(=O)Nc3ccc(F)cc32)c1C [Sunitinib] .
Result: yes (1)
